meta.source: paper PMC6309585

- Assay Text: Pharmacokinetics of BaP and RVT in plasma after oral gavage
- Type: in vivo, Apc^Min/+ mice
- Protocol Conditions: male, ApcMin/+, mouse, plasma, po
Property: half-life; scope: individual compounds
Report the figure in h without appending any unit label.

Q) Consider the compound Oc1ccc(C=Cc2cc(O)cc(O)c2)cc1 [RVT, 3,5,4′-trihydroxystilbene] and give its recorded half-life.
A) 1

---
Q) Consider the compound `c1ccc2c(c1)cc1ccc3cccc4ccc2c1c34` and give its recorded half-life.
A) 1.8
